Target: T1, cynomolgus monkey His6-GITR (cynomolgus monkey)
T1 construct: His6-tagged recombinant protein; also called cGITR-His; cyno GITR-His
T1 chain: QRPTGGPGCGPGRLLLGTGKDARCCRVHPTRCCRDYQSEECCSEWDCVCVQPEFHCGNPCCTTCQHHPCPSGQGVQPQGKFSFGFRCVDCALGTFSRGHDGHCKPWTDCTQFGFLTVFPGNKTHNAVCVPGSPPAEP
Experiment: ELISA, scFv periplasmic extract on coated His6-GITR
parameter: cGITR-His/BKG (fold over background)
Value expressed in fold over background; do not type the unit.

Incoming: Query: cGITR-His/BKG; subject: GITR-Mab-24 scFv (scFv, V domains shown, scFv in periplasmic extract, V5 tag) VH: QVQLVQSGAEVKKPGASVKVSCKASGGTFNNYAINWVRQAPGQGLEWMGTINPRDGDTTYAQKFQGRVTMTRDTSTSTVYMELSSLRSEDTAVYYCARVGYYGSGSYYSYYGMDVWGQGTTVTVSS VL: DIQMTQSPSSLSASVGDRVTITCRASQNITNWLAWYQQKPGKAPKLLIYAASSLQSGVPSRFSGSGSGTDFTLTISSLQPEDFATYYCQQAYSFPWTFGQGTKVEIK
Outgoing: 5.7

Incoming: Can you handle GITR-Mab-14 scFv (scFv, V domains shown, scFv in periplasmic extract, V5 tag) VH: EVQLLESGGGLVKPGGSLRLSCAASGFRFSVYWMSWVRQAPGKGLEWVSGISGSGGTTYYADSVKGRFTISRDDSKNTLYLQMNSLKTEDTAVYYCARVRRDGYNYNFDYWGQGTLVTVSS VL: DIQMTQSPSSLSASVGDRVTITCQASQDISNYLNWYQQKPGKAPKLLIFDASSLEAGVPSRFSGSGSGTDFTLTISSLQPEDFATYYCQQANSFPPTFGQGTEVEIK next?
Outgoing: 11.5

Incoming: What do we get for GITR-Mab-18 scFv (scFv, V domains shown, scFv in periplasmic extract, V5 tag) VH: EVQLLESGGGLVKPGGSLRLSCAASGFTFSSYWMSWVRQAPGKGLEWVSGISWNGGTVGYADSVKGRFTISRDDSKNTLYLQMNSLKTEDTAVYYCAKLGIAVKSHWYFDLWGRGTLVTVSS VL: DIQMTQSPSSLSASVGDRVTITCRASESISTWLAWYQQKPGKAPKLLIYAASSLQSGVPSRFSGSGSGTDFTLTISSLQPEDFATYYCQQSYTLPLTFGGGTKLEIK ?
Outgoing: 17.7
